Molecular target: T1, CRBN, Q96SW2;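 also: pooled lentiviral library of zinc finger degron-EGFP fusions in mCherry-positive Jurkat cells, FACS-sorted after compound exposure, with degron abundance counted by next-generation sequencing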
T1 chain: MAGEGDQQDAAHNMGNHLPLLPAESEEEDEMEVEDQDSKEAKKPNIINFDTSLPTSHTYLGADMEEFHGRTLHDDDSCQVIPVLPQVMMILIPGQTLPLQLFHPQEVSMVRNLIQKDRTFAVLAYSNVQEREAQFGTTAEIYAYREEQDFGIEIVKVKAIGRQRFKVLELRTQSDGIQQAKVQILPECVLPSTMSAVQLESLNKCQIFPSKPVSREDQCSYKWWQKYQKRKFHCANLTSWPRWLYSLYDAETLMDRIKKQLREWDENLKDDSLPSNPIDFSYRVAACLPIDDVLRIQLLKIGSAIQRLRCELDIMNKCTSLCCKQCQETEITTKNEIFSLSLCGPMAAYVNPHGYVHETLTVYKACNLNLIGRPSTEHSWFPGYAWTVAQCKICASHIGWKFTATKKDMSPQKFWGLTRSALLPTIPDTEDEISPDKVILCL
Experiment: log2 fold change of degron read counts, EGFP-low vs EGFP+ sorted cells (limma voom), compound-induced degradation; higher = more compound-induced degradation of the degron-EGFP fusion; degrons are variants of IKZF1/3 zinc finger 2; compound dose not given here
Details: Jurkat; 18 h; compound: thalidomide
In all, about 8,300 sequences were measured (“log2 fold change of degron read counts, EGFP-low vs EGFP+ sorted cells (limma voom), compound-induced degradation”: median about -1.1, highest 2% from about 3.2 on). The sample as a whole holds a higher share of the highest values than the screen did.
MEASURE_NAME: log2 fold change of degron read counts
Respond with the number and no other words.

Some entries whose results are on file:
FCCEVCGACFTQKGNLLRHIKL [46F_47C_49E_50V_52G_53A_54C_55F_67L_, Q9UKT9]: 2.26
FWCEVCGACFTQKGNLLRHIKL [46F_47W_49E_50V_52G_53A_54C_55F_67L_, Q9UKT9]: 1.25
FNCEVCGACFTQKGNLLRHIKL [46F_47N_49E_50V_52G_53A_54C_55F_67L_, Q9UKT9]: -0.55
FGCEVCGACFTQKGNLLRHIKL [46F_47G_49E_50V_52G_53A_54C_55F_67L_, Q9UKT9]: 0.497
FFCEVCGACFTQKGNLLRHIKL [46F_47F_49E_50V_52G_53A_54C_55F_67L_, Q9UKT9]: 1.24

QUERY: Which log2 fold change of degron read counts value belongs to FACEVCGACFTQKGNLLRHIKL [46F_47A_49E_50V_52G_53A_54C_55F_67L_, Q9UKT9] ?
RESULT: 0.401

QUERY: Next up: FDCEVCGACFTQKGNLLRHIKL [46F_47D_49E_50V_52G_53A_54C_55F_67L_, Q9UKT9]
RESULT: -0.0895

Reference source for all entries: the supplement of paper PMC12645437
